- SYSTEM_UNDER_TEST: recombinant human TFPI (tissue factor pathway inhibitor) (human, UniProt P10646 29-304)
- ASSAY_PROTOCOL: cell-based or functional assay
FXa assay % of FXa alone, 20 nM Ab, 10 nM TFPI values, listed per item
A number alone suffices; assume %.

BINDER: clone 10 (antibody, V domains shown) VH: EVQLVESGGGLVKPGGSLRLSCAASGFTFSSYAMNWVRQAPGKGLEWVSTITTGGSYTYYADSVQGRFTISRDNAKNSLYLQMNSLRAEDTAVYYCARQDGNFLMDYWGQGTLVTVSS VL: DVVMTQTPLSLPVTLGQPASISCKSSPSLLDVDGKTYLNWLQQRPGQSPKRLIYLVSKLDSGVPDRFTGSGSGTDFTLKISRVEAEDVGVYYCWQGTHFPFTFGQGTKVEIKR
UNITS_OF_MEASURE: %
RESULT_VALUE: 38.4
//
BINDER: clone 1023 (antibody, V domains shown, scFv on yeast at selection; human IgG4/kappa IgG as purified) VH: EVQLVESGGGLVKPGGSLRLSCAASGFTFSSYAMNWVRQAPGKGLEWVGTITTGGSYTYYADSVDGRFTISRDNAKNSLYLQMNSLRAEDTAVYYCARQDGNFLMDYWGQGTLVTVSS VL: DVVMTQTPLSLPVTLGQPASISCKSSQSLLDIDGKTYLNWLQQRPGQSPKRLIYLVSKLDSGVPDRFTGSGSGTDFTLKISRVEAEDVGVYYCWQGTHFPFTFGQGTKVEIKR
UNITS_OF_MEASURE: %
RESULT_VALUE: 84
//
BINDER: clone 7 (antibody, V domains shown) VH: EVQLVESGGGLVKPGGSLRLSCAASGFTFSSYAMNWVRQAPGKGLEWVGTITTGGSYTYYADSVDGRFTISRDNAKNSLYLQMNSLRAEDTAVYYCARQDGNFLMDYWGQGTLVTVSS VL: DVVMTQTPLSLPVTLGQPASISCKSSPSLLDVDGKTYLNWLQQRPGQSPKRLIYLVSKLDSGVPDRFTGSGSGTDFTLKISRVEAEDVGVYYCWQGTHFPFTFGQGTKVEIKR
UNITS_OF_MEASURE: %
RESULT_VALUE: 75.4

Now take the following binder into account.
Query: What FXa assay % of FXa alone, 20 nM Ab, 10 nM TFPI value was documented for this binder, clone 1 (antibody, V domains shown) VH: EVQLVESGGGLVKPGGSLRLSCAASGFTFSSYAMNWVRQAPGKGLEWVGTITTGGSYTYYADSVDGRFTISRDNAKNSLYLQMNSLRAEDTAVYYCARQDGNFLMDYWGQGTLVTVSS VL: DVVMTQTPLSLPVTLGQPASISCKSSPSLLDSDGKTYLNWLQQRPGQSPKRLIYLVSKLDSGVPDRFTGSGSGTDFTLKISRVEAEDVGVYYCWQGTHFPFTFGQGTKVEIKR ?
Result: 72
